The measured values listed here are drawn from the supplement of paper PMC11908140.

B1: library; numbered along this chain (parent)
chain: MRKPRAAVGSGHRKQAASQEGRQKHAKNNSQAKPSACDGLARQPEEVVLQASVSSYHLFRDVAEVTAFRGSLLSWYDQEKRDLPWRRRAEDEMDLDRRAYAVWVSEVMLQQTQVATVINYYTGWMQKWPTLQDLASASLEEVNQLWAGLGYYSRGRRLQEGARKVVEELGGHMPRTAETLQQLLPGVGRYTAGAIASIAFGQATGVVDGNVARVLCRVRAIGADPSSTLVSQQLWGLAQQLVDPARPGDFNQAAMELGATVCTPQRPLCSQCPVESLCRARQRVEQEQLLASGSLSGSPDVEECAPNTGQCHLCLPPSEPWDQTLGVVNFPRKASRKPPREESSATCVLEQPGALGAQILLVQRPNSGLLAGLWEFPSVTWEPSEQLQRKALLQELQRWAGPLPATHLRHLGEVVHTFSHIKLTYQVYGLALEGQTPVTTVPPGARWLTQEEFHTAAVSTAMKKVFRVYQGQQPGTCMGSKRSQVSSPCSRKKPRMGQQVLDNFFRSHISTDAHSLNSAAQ

variants of: B1; experiment: 8OG:A repair function score (normalized; synonymous = 0, nonsense = -1) (normalized log-likelihood score); higher = more repair activity (WT-like); conditions: with 8OG:A DNA repair reporter (GFP) in HEK-293 MUTYH KO cells;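 note: cells sorted at 72 h after reporter transfection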
Use Satisfied when the recorded 8OG:A repair function score is no lower than -0.06; use Not satisfied when it is lower.

- Variant descriptor: "I198V"
  Assigned label: "Not satisfied"
- Variant descriptor: "A431N"
  Assigned label: "Satisfied"
- Variant descriptor: "P185M"
  Assigned label: "Not satisfied"
- Variant descriptor: "Y428S"
  Assigned label: "Not satisfied"
- Variant descriptor: "I509Y"
  Assigned label: "Not satisfied"
- Variant descriptor: "A6R"
  Assigned label: "Not satisfied"
- Variant descriptor: "L423R"
  Assigned label: "Not satisfied"
- Variant descriptor: "G429F"
  Assigned label: "Satisfied"
- Variant descriptor: "S487M"
  Assigned label: "Satisfied"
- Variant descriptor: "Q288A"
  Assigned label: "Satisfied"
- Variant descriptor: "Q233K"
  Assigned label: "Not satisfied"
- Variant descriptor: "T122P"
  Assigned label: "Satisfied"
- Variant descriptor: "W128H"
  Assigned label: "Not satisfied"
- Variant descriptor: "V206S"
  Assigned label: "Not satisfied"
- Variant descriptor: "R81M"
  Assigned label: "Not satisfied"
- Variant descriptor: "K492C"
  Assigned label: "Satisfied"
- Variant descriptor: "S74K"
  Assigned label: "Satisfied"
- Variant descriptor: "T228Q"
  Assigned label: "Not satisfied"
- Variant descriptor: "V47H"
  Assigned label: "Satisfied"
- Variant descriptor: "N119D"
  Assigned label: "Not satisfied"
- Variant descriptor: "V274L"
  Assigned label: "Satisfied"
- Variant descriptor: "H420K"
  Assigned label: "Not satisfied"
- Variant descriptor: "E160H"
  Assigned label: "Not satisfied"
- Variant descriptor: "F200E"
  Assigned label: "Not satisfied"
- Variant descriptor: "P273E"
  Assigned label: "Not satisfied"
- Variant descriptor: "A391F"
  Assigned label: "Satisfied"
- Variant descriptor: "W146K"
  Assigned label: "Not satisfied"
- Variant descriptor: "E433P"
  Assigned label: "Satisfied"
- Variant descriptor: "P129T"
  Assigned label: "Not satisfied"
- Variant descriptor: "R163M"
  Assigned label: "Not satisfied"
- Variant descriptor: "H420N"
  Assigned label: "Not satisfied"
- Variant descriptor: "M108H"
  Assigned label: "Not satisfied"
- Variant descriptor: "L369P"
  Assigned label: "Satisfied"
- Variant descriptor: "E451H"
  Assigned label: "Satisfied"
- Variant descriptor: "Q50R"
  Assigned label: "Satisfied"
- Variant descriptor: "P474R"
  Assigned label: "Satisfied"
- Variant descriptor: "A36M"
  Assigned label: "Not satisfied"
- Variant descriptor: "A51W"
  Assigned label: "Satisfied"
- Variant descriptor: "E160D"
  Assigned label: "Not satisfied"
- Variant descriptor: "L396M"
  Assigned label: "Not satisfied"
- Variant descriptor: "I509H"
  Assigned label: "Satisfied"
- Variant descriptor: "G372A"
  Assigned label: "Not satisfied"
- Variant descriptor: "T346A"
  Assigned label: "Not satisfied"
- Variant descriptor: "D94K"
  Assigned label: "Not satisfied"
- Variant descriptor: "Q450T"
  Assigned label: "Satisfied"
- Variant descriptor: "T406E"
  Assigned label: "Not satisfied"
- Variant descriptor: "R409F"
  Assigned label: "Not satisfied"
- Variant descriptor: "P317K"
  Assigned label: "Not satisfied"
- Variant descriptor: "W399D"
  Assigned label: "Not satisfied"
- Variant descriptor: "Q50Y"
  Assigned label: "Not satisfied"
- Variant descriptor: "T346I"
  Assigned label: "Satisfied"
- Variant descriptor: "Q50T"
  Assigned label: "Not satisfied"
- Variant descriptor: "V214I"
  Assigned label: "Not satisfied"
- Variant descriptor: "A177K"
  Assigned label: "Satisfied"
- Variant descriptor: "P306T"
  Assigned label: "Satisfied"
- Variant descriptor: "R246S"
  Assigned label: "Not satisfied"
- Variant descriptor: "H407L"
  Assigned label: "Satisfied"
- Variant descriptor: "G205M"
  Assigned label: "Not satisfied"
- Variant descriptor: "V114P"
  Assigned label: "Not satisfied"
- Variant descriptor: "E452H"
  Assigned label: "Not satisfied"
- Variant descriptor: "R175E"
  Assigned label: "Satisfied"
- Variant descriptor: "R86A"
  Assigned label: "Not satisfied"
- Variant descriptor: "Q450W"
  Assigned label: "Satisfied"
- Variant descriptor: "E375G"
  Assigned label: "Not satisfied"
- Variant descriptor: "P320S"
  Assigned label: "Satisfied"
- Variant descriptor: "V427I"
  Assigned label: "Not satisfied"
- Variant descriptor: "W85P"
  Assigned label: "Not satisfied"
- Variant descriptor: "P377E"
  Assigned label: "Not satisfied"
- Variant descriptor: "L313M"
  Assigned label: "Satisfied"
- Variant descriptor: "G188Q"
  Assigned label: "Not satisfied"
- Variant descriptor: "P365S"
  Assigned label: "Not satisfied"
- Variant descriptor: "S459N"
  Assigned label: "Not satisfied"
- Variant descriptor: "N366M"
  Assigned label: "Satisfied"
- Variant descriptor: "L183P"
  Assigned label: "Not satisfied"
- Variant descriptor: "G326Q"
  Assigned label: "Not satisfied"
- Variant descriptor: "L158F"
  Assigned label: "Not satisfied"
- Variant descriptor: "A254V"
  Assigned label: "Satisfied"
- Variant descriptor: "Y469A"
  Assigned label: "Not satisfied"
- Variant descriptor: "V102C"
  Assigned label: "Not satisfied"
- Variant descriptor: "V207L"
  Assigned label: "Not satisfied"
- Variant descriptor: "A253K"
  Assigned label: "Not satisfied"
- Variant descriptor: "D94E"
  Assigned label: "Not satisfied"
- Variant descriptor: "E350D"
  Assigned label: "Not satisfied"
- Variant descriptor: "G148H"
  Assigned label: "Not satisfied"
- Variant descriptor: "W374Q"
  Assigned label: "Not satisfied"
